- protocol: Solubility in citrate buffer (0.1 M) at 25 degree centigrade(pH 5)
- Type: physicochemical
- details: citrate buffer, read-out: S
result_type: solubility (µg/mL)

[I] CCn1cc(C(=O)O)c(=O)c2cc(F)c(N3CCN(C(=O)OCOC(C)=O)CC3)cc21
[II] CCn1cc(C(=O)O)c(=O)c2cc(F)c(N3CCN(C(=O)OC(C)OC(C)=O)CC3)cc21 (configuration not stated)
Lab note: record which item had the higher solubility, I or II . Identify your pick by its label.
II

----------
- protocol: Half life in a medium of rat serum.
- Format: ADME, organism-based
result_type: half-life (min)

compound="CCn1cc(C(=O)O)c(=O)c2cc(F)c(N3CCN(C(=O)OC(C)OC(C)=O)CC3)cc21 (configuration not stated)" observed_measurement=1.5
compound=CCn1cc(C(=O)O)c(=O)c2cc(F)c(N3CCN(C(=O)OCOC(C)=O)CC3)cc21 observed_measurement=1.5
